// endpoint IC50 / system Prostaglandin G/H synthase 1 (Ovis aries, UniProt P05979)
Numbers only, in µM.

Cc1nc2ccccc2c(=O)n1NC(=S)Nc1ccccc1
18.9

Give me IC50 for each of these compounds, listed below.
1. CC(=O)Nc1ccc(S(=O)(=O)Nn2c(CO[N+](=O)[O-])nc3ccccc3c2=O)cc1
2. Cc1ccc(S(=O)(=O)Nn2c(C)nc3ccccc3c2=O)cc1
3. Cc1ccc(S(=O)(=O)Nn2c(CO[N+](=O)[O-])nc3ccccc3c2=O)cc1
4. Cc1nc2ccccc2c(=O)n1NC(=O)NC1CCCCC1

output:
24.1
32.7
38.8
23.8
